All figures here come from a melting point compilation (Tetko et al.; mined from patent text by program, amines drawn as free bases though some values may be those of a salt).

observed_property: melting point

compound=O=C(CCC(=O)N1CCN(c2ccc(N3C[C@H](CNC(=S)C4CC4)OC3=O)cc2F)CC1)c1ccc(CN2CCOCC2)cc1 meas_value="173 to 174 °C"
compound="OC(c1ccc(F)cc1)c1cc(Br)cc(Br)c1 (stereo not given)" meas_value="92 to 93 °C"
compound=CC1(C(=O)Nc2ccc(OC(=O)Cc3cccs3)c(Cl)c2Cl)CCCCC1 meas_value="58 °C"
compound=CC(C)OP(=O)(OCN1C(=O)c2c(C(C)C)cc(OCC(=O)OCc3ccccc3)cc2S1(=O)=O)OC(C)C meas_value="93 to 94 °C"
compound=O=c1c2ccc(Cl)cc2n(Cc2ccccc2)n2c(Br)ccc12 meas_value="148 to 149 °C"
compound=CSC(=NS(=O)(=O)c1ccccc1-c1ccccc1)SC meas_value="115 to 117 °C"
compound=COc1ccc(CN(CCN(C)CCCCCCNC(=S)NCCSCc2csc(NC(=N)N)n2)c2ccccn2)cc1 meas_value="78 °C"
compound=CC1(C)CCC(C)(C)c2cc3c(cc21)CCC=C3Cc1ccc(C(=O)O)cc1 meas_value="212 to 214 °C"
compound=COc1ccc2c3c(c(=O)oc2c1)CN(Cc1cc(OC)c(OC)c(OC)c1)CC3 meas_value="171 to 173 °C"
compound=COc1ccccc1-c1cc2c(ccn2C)c2c1C(=O)NC2=O meas_value="243 to 245 °C"
compound=O=C(c1ccco1)N1CCN(c2nc3c(c(-c4ccc(F)cc4)n2)CCC3)CC1 meas_value="124 to 125 °C"
compound="COc1ccc(-c2ccc(Cl)nn2)c(OCC2CO2)c1 (stereo not given)" meas_value="111 to 112 °C"
compound=CCCOc1ccc(-c2ccc3c(c2)C(C)(C)CCC3(C)C)cc1-c1ccc(C(=O)O)cc1 meas_value="199 to 204 °C"
compound=Cc1cc(C)cc(C(=O)/C=C/c2nc[nH]c2C)c1 meas_value="165 to 166 °C"
compound=O=C(NCc1ccc(Br)cc1F)OCc1ccccc1 meas_value="82 to 84 °C"
compound=Cc1cc(C2(O)C(=O)c3ccccc3C2=O)c(C)cc1O meas_value="228 to 230 °C"
compound=COC(=O)c1ccc(O)c(C=NO)c1 meas_value="155 °C"
compound=CC(C)c1cccc(C(C)C)c1NC(=O)CN1C(=O)N(c2ccc(C#N)cc2)C2(CCCCC2)C1=O meas_value="280 to 282 °C"
compound="O=C(O)Cc1ccc(OCCNC(=O)C2Cc3ccccc3N2S(=O)(=O)c2ccc(-c3cccc(C(F)(F)F)c3)cc2)c(Cl)c1 (stereo not given)" meas_value="96 °C"
compound=CN1CC(=O)N(C(c2ccccc2)c2ccccc2)C1=S meas_value="139 to 141 °C"

---

observed_property: melting point

molecule=CCOC(=O)c1ccc(C#CCOc2cc3c(cc2C=O)C(C)(C)CCC3(C)C)cc1 observed_property="melting point" meas_value="114 to 115 °C"
molecule=CN(C)C=CC(=O)c1ccc(I)cc1 observed_property="melting point" meas_value="117 to 118 °C"
molecule="CN(c1cccc2cc(C3=NCC(CN4CCS(=O)CC4)S3)[nH]c12)S(=O)(=O)c1nccn1C (stereo unspecified)" observed_property="melting point" meas_value="161 to 162 °C"
molecule=COc1ccc2ncc(C#N)c(Nc3ccc4nn[nH]c4c3)c2c1 observed_property="melting point" meas_value="> 250 °C"
molecule="O=C1N(Cc2ccc(C(F)(F)F)o2)c2ccccc2C12COc1cc3c(cc12)OCCO3 (stereo unspecified)" observed_property="melting point" meas_value="53 to 56 °C"
molecule=O=C1c2cc(C(F)(F)F)c(C(F)(F)F)cc2C(=O)c2cc3ccccc3cc21 observed_property="melting point" meas_value="> 280 °C"
molecule="COc1cc(F)ccc1-c1ccc(S(=O)(=O)N2c3ccccc3CC2C(=O)O)cc1 (stereo unspecified)" observed_property="melting point" meas_value="93 to 100 °C"
molecule="CCOC(=N)CC1(C)OCCc2c1[nH]c1ccccc21 (stereo unspecified)" observed_property="melting point" meas_value="140 to 141 °C"
molecule=C#CCN1C(=O)C2CC3CC(C2)CC1C3 observed_property="melting point" meas_value="168 to 170 °C"
molecule=O=C(N[C@H](CC1CCCCC1)CN1CCN(c2ncccn2)CC1)C1CCCCC1 observed_property="melting point" meas_value="121 to 123 °C"
molecule="CC1C(=O)N(c2ccc(Oc3ccccc3)cc2)C(=S)N1Cc1ccccc1 (stereo unspecified)" observed_property="melting point" meas_value="138 °C"
molecule=CSc1c(F)ccc2onc(OCCNC(=O)OC(C)(C)C)c12 observed_property="melting point" meas_value="91 to 92 °C"
molecule=O=C(Nc1cccc(F)c1)C12CC3CC(CC(C3)C1)C2 observed_property="melting point" meas_value="174 to 177 °C"
molecule=COC(=O)CC(=O)Nc1cccc(COc2ccc(C(C)=O)c(OC)c2)c1 observed_property="melting point" meas_value="93.5 to 96.5 °C"
molecule="CC1(C2CCCC2)Cc2cc(OCC(=O)O)c(Cl)c(Cl)c2C1=O (stereo unspecified)" observed_property="melting point" meas_value="113 to 114 °C"
molecule=Cc1cc(C(=S)NCc2cccc([N+](=O)[O-])c2)c(OCC(=O)O)cc1F observed_property="melting point" meas_value="137 to 139 °C"

---

# maps each entry to its melting point
observed_property: melting point (°C)

compound="O=C(O)C1=CSC2CC(=O)N12 (configuration not stated)" meas_value=235
compound=COCCOc1ccc(/C=C(\C)C(=O)NS(=O)(=O)c2ccc(Cl)cc2)c(Oc2ncc(C(F)(F)F)cc2Cl)c1 meas_value=146
compound=COc1cc(OC)c(OC)cc1CN[C@@H](C(=O)O)[C@H](O)[C@H](Cc1ccccc1)NC(=O)OC(C)(C)C meas_value=206

---

# maps each entry to its melting point
observed_property: melting point

molecule="CCCCOc1cc2c(cc1OC)C(c1ccc(OC)c(OC)c1)=NN=C(C)C2CC (centres undefined)" meas_value="147 to 150 °C"
molecule=O=C(O)c1c2c(nc3ccc(F)cc13)-c1ccc(-c3ccc(F)cc3F)cc1CCC2 meas_value="> 300 °C"
molecule="NC(=O)c1ccc(C(Cc2ccc(F)cc2)C(=O)Nc2nc3ccccc3o2)cc1 (centres undefined)" meas_value="137 to 139 °C"
molecule="CCOC(=O)Cc1ccc(NC(=O)C(Cn2ccnc2)NS(=O)(=O)c2ccc(F)cc2)cc1 (racemic)" meas_value="155 to 157 °C"
molecule=CC(=O)c1ccc2c(c1)C=CC(=O)CO2 meas_value="92 to 93 °C"
molecule=CC(C)(C)OC(=O)NCC(=O)Nc1ccc(Nc2cccc3c2C(=O)c2ccccc2C3=O)cc1 meas_value="171 °C"
molecule="CCNC1(c2ccccc2Cl)C(=O)Nc2ccc(OCC)cc21 (centres undefined)" meas_value="195 to 200 °C"
molecule=CC(C)c1nn(-c2ncc(C(F)(F)F)cc2Cl)cc1CCCO meas_value="66 to 67 °C"
molecule=Cc1nc(-c2ccccc2)c(CBr)o1 meas_value="75 to 76 °C"
molecule=CC(C)(C)OC(=O)N1[C@@H](CC2CCCCC2)[C@H](CC2SCCCS2)OC1(C)C meas_value="104 to 106 °C"
molecule=CCCc1c(OCCOCCOc2ccc3ccc(OCCCC(=O)O)cc3c2C(C)=O)ccc(C(C)=O)c1O meas_value="71 to 75 °C"
molecule=COc1cc2ncc(C#N)c(Nc3cccc(F)c3)c2cc1OC meas_value="226 to 230 °C"
molecule=Fc1nc(NCc2ccccn2)c2nc[nH]c2n1 meas_value="217 to 220 °C"
molecule=Cc1cc2ncc(C(=O)O)c(N(C)S(=O)(=O)c3ccc(Oc4ccncc4)cc3)n2n1 meas_value="246 to 248 °C"

---

observed_property: melting point

compound=CCCc1c(OCc2ccc(C(=O)NCCCCc3cccnc3)c(OCC)c2)ccc(C(C)=O)c1O meas_value="92 to 93 °C"
compound=COC(=O)C(C)(C)C(=O)c1ccc(-n2cncn2)cc1 meas_value="84 to 85 °C"
compound=Cc1cccc(N2CC(=O)N(C)C(=O)N2)c1 meas_value="173 to 175 °C"
compound=O=C(O)[C@@H]1CCc2ccc(O)cc2O1 meas_value="77 to 79 °C"
compound=CC(C)(C)OC(=O)n1c([Si](C)(C)C)cc2cnccc21 meas_value="112 °C"
compound="CSCCC(NC(=O)c1ccc(Cl)cc1)NC(=NC#N)Nc1cccnc1 (configuration not stated)" meas_value="104 to 105 °C"
compound=Cc1csn(-c2ccc(Cl)cc2)c1=O meas_value="157 to 159 °C"
compound="CC(C#N)c1ccc2nc(N)sc2c1 (configuration not stated)" meas_value="165 °C"
compound=O=C1Nc2ccc(Cl)cc2C12OCCCO2 meas_value="184 to 185 °C"
compound=CCNC(=O)c1cc(NCn2nnc3ccccc32)ccc1[Si](C)(C)C meas_value="207 to 208 °C"
compound=Cc1ccc(-c2[nH]c(-c3cccc4ccccc34)nc2C(=O)Nc2nccs2)cc1 meas_value="228 to 229 °C"
compound=CCn1cc(C(=O)O)c(=O)c2cc(F)c(N3CC(C)(N)C3)c(F)c21 meas_value="293 to 296 °C"
compound=CC(=O)c1cc(S(=O)(=O)N(C)C)ccc1O meas_value="115 to 116 °C"
compound="CC(C(O)CCC1CC1)C1CCC2C3CC=C4CC(O)CCC4(C)C3CCC12C (configuration not stated)" meas_value="174 to 175 °C"
compound="CCC1Sc2cc(-c3cccc([N+](=O)[O-])c3)ccc2NC1=O (configuration not stated)" meas_value="180 °C"
compound=CCCCCCOc1ccc(NC(=O)Nc2ccccc2CCc2cc(C(C)(C)C)c(O)c(C(C)(C)C)c2)cc1 meas_value="174 to 176 °C"
compound=CC(C)(CNc1ccnc2cc(Cl)ccc12)NCc1ccc(Cl)c(C(F)(F)F)c1 meas_value="158 to 160 °C"
